The measurements presented in this section are drawn from the nanobody polyreactivity screen of Harvey et al. (2022).

test description: yeast display, Sf9 membrane polyspecificity reagent, FACS + sequencing; frameworks hold sequencing errors
experimental readout: polyreactivity (PSR sort gate)

| sequence string | observed result |
| --- | --- |
| QVQLVESGGGLVQAGGSLRLSCAASGLTFDWYTMGWYRQAPGKERELVATINSGGSTDYADSVKGRFTISRDNAKNNVYLQMNSLKPEDTAVYYCNAEYGYSGVGDDYWGQGTQVTVSS | low polyreactivity |
| QVQLVESGGGLVQAGGSLRLSCAASGSILDGNAMGWYIQAPGKERELVAAISWNGARTYYADSVKGRFTISRDNAKNTVYLQMNSLKPEDTAVFYCAARRGSGKFGKYRGVDYWGQVTQVTVSS | high polyreactivity |
| QVQLVESGGGLVQAGGSLRLSCAASGIISSVYAMGWYRQAPGKERELVAAISGSGGSTYYADSVKGRFTISRDNAKNTVYLQMNSLKPEDTAVYYCAKGYQYQGNSYGYWGQGTQVTVSS | low polyreactivity |
| QVQLVESGGGLVHAGRSLRLSCAPSGSTFSIYDMGWSRQAPGKERELVAAISGSGSRTYYADSVKGRFTISRDNAKNTVYLQMNSLKPEDTALYYCAARGRHRDGFDFNYWGQGTQVTVSS | high polyreactivity |
| QVQLVESGGGLVQAGGSLRLRCAASGRTVVGTTMGWYRQAPGKEREVVAAISSGGRTYYADSVKGRFTISRDNAKNTVYLQMNSLIPVDTAVYYCAARRRGKVVPTSQFDYWGQGTQVTVSS | high polyreactivity |

Look up polyreactivity (PSR sort gate): "QVQLVESGGGLVQAGGSLRLSCAASGLIIYYYAMGWYRQAPGKERELVAAISINGGSTYYADSVKGRFTISRDNAKNTVYLQMNSLIPEDTAVYYCAAFRRRMEYWGQGTQVTVSS"
high polyreactivity

# iterate: "QVQLVESGGGLVPAGGSLRLSCAASGFIFVTNGMGWYRQAPGKERELVAAITDNGGSTYYADSGKGRFTISRDNAKNTVYLQMNSLKPEDTAVYYCNADRVVGPYDGYDYWGQGTQVTVSS"
low polyreactivity

# iterate: "QVQLVESGGGLVQAGGSLRLSCAASGRIVCYYDMGWSRQAHGKERELVATITFGGGSTYYADSVKGRFTISRDNAKNTVYLQMNSLKPEDTAVYYCAADSGYLGIYGDEYSSGQGTQVTVSS"
low polyreactivity

# iterate: "QVQLVESGGGLVQAGGSLRLSCAASGFTFTAYAMGWYRQAPGKERELVAAINWSGSRTYYADSVKGRFTISRDNAKNNVYLKMNSLKPEDTAVYYCNTATSKSSYRHYDYWGQGTQVTVSS"
high polyreactivity

# iterate: "QVQLVESGGGLVQAGGSLRLSCAASGRIFVFNAMGWYRQAPGKERELVASISSSGGSTYYADSVKGRFTISRDNAKNTVYLQINSLKPEDTAVYYCARRSYHSRYNYWGQGTQVTVSS"
high polyreactivity

# iterate: "QVQLVESGGGLVQAGGSLRLSCAASGLIFYDNMGGYRQAPGKERELVAAISSSGGSTSYADSVKGRFTISRDNAKNTVSLQMNSLNPEDSAVYYCTVSPGVWRSIPLYYNLLYGYWGQGTQVTVSS"
low polyreactivity
